Each entry below carries its recorded pIC50.
target: B-cat-Halo (beta-catenin HaloTag NanoBRET construct expressed in HEK293 cells) (UniProt P35222)
Sequence (P35222 whole entry): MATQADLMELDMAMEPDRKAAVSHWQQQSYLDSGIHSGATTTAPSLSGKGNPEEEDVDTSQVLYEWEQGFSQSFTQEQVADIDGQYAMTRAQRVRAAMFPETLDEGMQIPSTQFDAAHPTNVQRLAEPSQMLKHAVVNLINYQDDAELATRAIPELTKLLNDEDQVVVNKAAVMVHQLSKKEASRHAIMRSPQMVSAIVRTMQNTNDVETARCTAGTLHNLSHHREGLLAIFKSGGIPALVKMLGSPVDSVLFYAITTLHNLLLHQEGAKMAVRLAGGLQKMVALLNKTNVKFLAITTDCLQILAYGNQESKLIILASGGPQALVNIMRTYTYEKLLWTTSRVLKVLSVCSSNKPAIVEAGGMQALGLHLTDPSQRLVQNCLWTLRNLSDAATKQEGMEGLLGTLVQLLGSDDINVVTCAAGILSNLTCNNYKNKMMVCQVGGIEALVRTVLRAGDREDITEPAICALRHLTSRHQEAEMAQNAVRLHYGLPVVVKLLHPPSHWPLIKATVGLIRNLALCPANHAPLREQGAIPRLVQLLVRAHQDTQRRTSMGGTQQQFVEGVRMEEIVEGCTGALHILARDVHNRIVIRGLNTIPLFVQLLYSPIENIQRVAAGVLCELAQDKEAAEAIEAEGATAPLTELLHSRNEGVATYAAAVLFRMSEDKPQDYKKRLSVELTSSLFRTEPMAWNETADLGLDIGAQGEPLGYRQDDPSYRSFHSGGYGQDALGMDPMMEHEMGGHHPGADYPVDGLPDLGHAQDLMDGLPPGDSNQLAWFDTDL
protocol-text: NanoBRET in HEK293 cells, Bcat-Halo / TCF4-Luc (competitor TCF4-Luc); absolute IC50
Starred links: 1 amine or outer side, 2 acyl side, 3 side chain; linkers in the order of their positions; H or OH if unused. Positions of bridges follow the written chain, without caps; N, C: chain ends. Non-standard residues stand in square brackets, D forms with d. Primed or numbered codes have the meaning given here. B5(5) = 2,2-bis(4-pentenyl)glycine, 2-amino-2-(pent-4-en-1-yl)hept-6-enoic acid (stitching residue), C=CCCCC(CCCC=C)(N[*:1])C(=O)[*:2]; PyrS2 = (S)-3-amino-1-((pent-4-en-1-yloxy)carbonyl)pyrrolidine-3-carboxylic acid, C=CCCCOC(=O)N1CC[C@@](N[*:1])(C(=O)[*:2])C1; Phe(3-COOH) = N[C@@H](Cc1cccc(C(=O)O)c1)C(=O)O; Phe(2-CF3) = N[C@@H](Cc1ccccc1C(F)(F)F)C(=O)O; Bta = N[C@@H](Cc1csc2ccccc12)C(=O)O; αAllylPro = C=CC[C@@]1(C(=O)O)CCCN1; tBuAla = CC(C)(C)C[C@H](N)C(=O)O; 3Thi = N[C@@H](Cc1ccsc1)C(=O)O; Aib = CC(C)(N)C(=O)O
The read-out pIC50 is expressed as -log10 of concentration in moles per litre.

In [3]: df
Out[3]:
                                     binder  quantitative_readout
0  Ac-[αAllylPro]D[tBuAla][B5(5)]D[Phe(3-COOH)]AAFL[PyrS2][Phe(2-CF3)][Bta]QAA-NH2 (staple 1-4, 4-11) [I-2399]                  5.55

Data request: Specify pIC50 for Ac-[αAllylPro]D[tBuAla][B5(5)]NT[Aib]AFT[PyrS2][3Thi][Bta]Q-NH2 (staple 1-4, 4-11) [I-2409] and stop.
Data returned: 4.30

// provenance: patent US20240116985A1
